The reported numbers originate from patent US20220177564A1.

Target: T1, human IL-13 (human, UniProt P35225 35-146, limits assumed)
T1 construct: Biotinylated in the binary complex AlphaScreen; Different commercial lots are kept as one molecule; also called hIL-13; hIL13
Assay: AlphaScreen; hIL-13:hIL-13Rα1:hIL4Rα ternary complex

| BINDER | % inhibition / % |
| --- | --- |
| F010700031 (VHH, Bivalent anti-IL-13 construct of two VHHs, Pichia pastoris, FLAG3-HIS6-tagged; also called F0107004B06-35GS-F0107004B06; not shown: FLAG3-HIS6 tag) EVQLVESGGGLVQPGGSLRLSCAASGFTFNNYAMKWVRQAPGKGLEWVSSITTGGGSTDYADSVKGRFTISRDNRKNTLYLQMNSLKPEDTAVYYCANVPFGYYSEHFSGLSFDYRGQGTLVTVSSGGGGSGGGGSGGGGSGGGGSGGGGSGGGGSGGGGSEVQLVESGGGLVQPGGSLRLSCAASGFTFNNYAMKWVRQAPGKGLEWVSSITTGGGSTDYADSVKGRFTISRDNRKNTLYLQMNSLKPEDTAVYYCANVPFGYYSEHFSGLSFDYRGQGTLVTVSS | 99 |
| F010700003 (bispecific antibody, Biparatopic anti-IL-13 construct of two VHHs, expressed in Pichia pastoris as FLAG3-HIS6-tagged protein; also called F0107004B06-35GS-F0107004B02; not shown: FLAG3-HIS6 tag) EVQLVESGGGLVQPGGSLRLSCAASGFTFNNYAMKWVRQAPGKGLEWVSSITTGGGSTDYADSVKGRFTISRDNRKNTLYLQMNSLKPEDTAVYYCANVPFGYYSEHFSGLSFDYRGQGTLVTVSSGGGGSGGGGSGGGGSGGGGSGGGGSGGGGSGGGGSEVQLVESGGGLVQAGGSLRLSCAASGRTFSSYRMGWFRQAPGKEREFVAALSGDGYSTYTANSVNSRFTISRDNAKNTVYLQMNSLKPEDTAIYYCAAKLQYVSGWSYDYPYWGQGTLVTVSS | 100 |
| F010700014 (VHH, Bivalent anti-IL-13 construct of two VHHs, Pichia pastoris, FLAG3-HIS6-tagged; also called F0107004B02-35GS-F0107004B02; not shown: FLAG3-HIS6 tag) EVQLVESGGGLVQAGGSLRLSCAASGRTFSSYRMGWFRQAPGKEREFVAALSGDGYSTYTANSVNSRFTISRDNAKNTVYLQMNSLKPEDTAIYYCAAKLQYVSGWSYDYPYWGQGTLVTVSSGGGGSGGGGSGGGGSGGGGSGGGGSGGGGSGGGGSEVQLVESGGGLVQAGGSLRLSCAASGRTFSSYRMGWFRQAPGKEREFVAALSGDGYSTYTANSVNSRFTISRDNAKNTVYLQMNSLKPEDTAIYYCAAKLQYVSGWSYDYPYWGQGTLVTVSS | 98 |
| F010700029 (bispecific antibody, Biparatopic anti-IL-13 construct of two VHHs, Pichia pastoris, FLAG3-HIS6-tagged; also called F0107004B02-35GS-F0107004B06; not shown: FLAG3-HIS6 tag) EVQLVESGGGLVQAGGSLRLSCAASGRTFSSYRMGWFRQAPGKEREFVAALSGDGYSTYTANSVNSRFTISRDNAKNTVYLQMNSLKPEDTAIYYCAAKLQYVSGWSYDYPYWGQGTLVTVSSGGGGSGGGGSGGGGSGGGGSGGGGSGGGGSGGGGSEVQLVESGGGLVQPGGSLRLSCAASGFTFNNYAMKWVRQAPGKGLEWVSSITTGGGSTDYADSVKGRFTISRDNRKNTLYLQMNSLKPEDTAVYYCANVPFGYYSEHFSGLSFDYRGQGTLVTVSS | 100 |
